assay: PET hydrolysis, aromatic products released after 48 h (umol product/mg enzyme); higher = more PET depolymerization activity; settings: substrate: aFilm; 40 °C; pH 8.5

BIOPOLYMER SEQUENCE: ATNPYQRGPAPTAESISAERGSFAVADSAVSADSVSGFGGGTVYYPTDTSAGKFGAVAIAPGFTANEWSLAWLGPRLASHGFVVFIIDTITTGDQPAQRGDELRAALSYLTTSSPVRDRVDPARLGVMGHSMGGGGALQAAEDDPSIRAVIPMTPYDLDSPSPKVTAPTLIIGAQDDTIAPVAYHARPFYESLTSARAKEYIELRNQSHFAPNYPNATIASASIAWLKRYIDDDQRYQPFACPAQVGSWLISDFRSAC [DP034]
PET hydrolysis: < 3
//
BIOPOLYMER SEQUENCE: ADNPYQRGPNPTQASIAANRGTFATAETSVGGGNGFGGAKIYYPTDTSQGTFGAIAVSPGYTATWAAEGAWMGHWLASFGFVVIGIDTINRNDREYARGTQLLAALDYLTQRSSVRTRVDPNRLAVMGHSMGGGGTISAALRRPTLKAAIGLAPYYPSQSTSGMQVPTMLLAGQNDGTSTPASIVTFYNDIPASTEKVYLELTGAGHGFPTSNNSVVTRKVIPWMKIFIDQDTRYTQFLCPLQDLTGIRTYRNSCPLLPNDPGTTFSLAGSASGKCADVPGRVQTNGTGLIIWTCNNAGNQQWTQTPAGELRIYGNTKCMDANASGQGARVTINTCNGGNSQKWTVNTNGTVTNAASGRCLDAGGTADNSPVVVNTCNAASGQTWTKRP [DP047]
PET hydrolysis: < 3
//
BIOPOLYMER SEQUENCE: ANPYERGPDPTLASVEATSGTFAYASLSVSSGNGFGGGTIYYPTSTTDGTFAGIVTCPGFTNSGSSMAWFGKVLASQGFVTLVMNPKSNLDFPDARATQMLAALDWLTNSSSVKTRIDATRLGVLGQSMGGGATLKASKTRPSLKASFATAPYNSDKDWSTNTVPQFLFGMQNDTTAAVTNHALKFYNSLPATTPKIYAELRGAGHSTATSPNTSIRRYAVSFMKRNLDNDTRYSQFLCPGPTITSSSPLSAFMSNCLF [DP080]
PET hydrolysis: 1.5
//
BIOPOLYMER SEQUENCE: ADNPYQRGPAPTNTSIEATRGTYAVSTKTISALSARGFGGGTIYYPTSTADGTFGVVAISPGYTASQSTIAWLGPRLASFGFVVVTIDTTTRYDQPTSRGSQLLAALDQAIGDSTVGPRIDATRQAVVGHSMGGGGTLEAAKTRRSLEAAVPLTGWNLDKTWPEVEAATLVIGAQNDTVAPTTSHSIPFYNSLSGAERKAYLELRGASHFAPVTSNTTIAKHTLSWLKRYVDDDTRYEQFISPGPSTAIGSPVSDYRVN [DP022]
PET hydrolysis: < 3
//
BIOPOLYMER SEQUENCE: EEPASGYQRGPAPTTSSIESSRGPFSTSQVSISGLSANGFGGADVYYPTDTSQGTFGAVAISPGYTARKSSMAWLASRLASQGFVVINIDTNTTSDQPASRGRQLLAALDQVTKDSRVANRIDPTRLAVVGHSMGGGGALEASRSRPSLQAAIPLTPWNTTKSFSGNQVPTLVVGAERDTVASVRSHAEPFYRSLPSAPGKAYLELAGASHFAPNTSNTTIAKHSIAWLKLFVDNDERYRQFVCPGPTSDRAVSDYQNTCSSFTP [DP053]
PET hydrolysis: < 3
